# test target: Neuropeptide Y receptor type 4 (Homo sapiens, UniProt P50391)
# Sequence (P50391 whole entry): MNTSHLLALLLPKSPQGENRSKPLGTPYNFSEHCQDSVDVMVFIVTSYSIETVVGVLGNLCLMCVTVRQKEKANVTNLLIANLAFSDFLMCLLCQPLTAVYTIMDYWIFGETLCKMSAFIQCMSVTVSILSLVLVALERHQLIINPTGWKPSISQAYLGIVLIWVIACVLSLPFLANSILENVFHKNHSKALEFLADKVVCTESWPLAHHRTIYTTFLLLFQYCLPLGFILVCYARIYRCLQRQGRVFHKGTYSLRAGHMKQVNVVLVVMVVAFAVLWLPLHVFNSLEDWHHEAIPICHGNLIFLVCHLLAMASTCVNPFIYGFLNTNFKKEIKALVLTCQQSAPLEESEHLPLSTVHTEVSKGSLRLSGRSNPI
# method: Agonist activity at human neuropeptide Y Y4 receptor expressed in HEK293T-ARRB1 cells assessed as stimulation of beta-arrestin 1 recruitment by multimode plate reader
# Format: functional, cell-based
# run conditions: read-out: pEC50 (converted)
Starred links: 1 amine or outer side, 2 acyl side, 3 side chain; linkers in the order of their positions; H or OH if unused. Residues, ends and D or L forms follow the SMILES beside them. Groups on a side chain read outwards from the residue. *: point of attachment. Suc = O=C(CCC(=O)[*:2])[*:1]; CO = O=C([*:1])[*:2]; NH(CH2)3NH2 = NCCCN*
Overview of reported EC50 across a group of compounds:

Reference set (5 entries):
compound: CC(C)C[C@H](NC(=O)[C@H](CCCNC(=N)N)NC(=O)[C@H](Cc1ccc(O)cc1)NC(=O)[C@H](CCCNC(=N)N)NC(=O)CCC(=O)O)C(=O)N[C@@H](CCCNC(=N)NC(=O)NCCCN)C(=O)N[C@@H](Cc1ccc(O)cc1)C(N)=O
EC50: > 10 µM

compound: CC(C)C[C@H](NC(=O)[C@@H]1CCC(=O)NCC(=O)N[C@H](CCCNC(=N)N)C(=O)N[C@@H](CCCNC(=N)N)C(=O)N1)C(=O)N[C@@H](CCCNC(=N)N)C(=O)N[C@@H](Cc1ccc(O)cc1)C(N)=O
EC50: > 10 µM

compound: CC(C)C[C@@H]1NC(=O)[C@H](CCCNC(=N)N)NC(=O)[C@H](Cc2ccc(O)cc2)NC(=O)[C@H](CCCNC(=N)N)NC(=O)CCC(=O)NCCCNC(=O)NC(=N)NCCC[C@@H](C(=O)N[C@@H](Cc2ccc(O)cc2)C(N)=O)NC1=O
EC50: > 10 µM

compound: CC(C)C[C@H](NC(=O)[C@@H]1CC(=O)NCC(=O)N[C@H](CCCNC(=N)N)C(=O)N[C@@H](CCCNC(=N)N)C(=O)N1)C(=O)N[C@@H](CCCNC(=N)N)C(=O)N[C@@H](Cc1ccc(O)cc1)C(N)=O
EC50: > 10 µM

compound: N=C(N)NCCC[C@H](NC(=O)CCC(=O)O)C(=O)N[C@@H](Cc1ccc(O)cc1)C(=O)N[C@@H](CCCNC(=N)NC(=O)NCCCN)C(=O)N[C@@H](Cc1c[nH]c2ccccc12)C(=O)N[C@@H](CCCNC(=N)N)C(=O)N[C@@H](Cc1ccc(O)cc1)C(N)=O (Suc-RYR([CO-NH(CH2)3NH2])WRY-NH2)
EC50: 0.123 µM

Read the next record carefully.
Task item: Tell us which EC50 value is on record for N=C(N)NCCC[C@H](NC(=O)CCC(=O)O)C(=O)N[C@@H](Cc1ccc(O)cc1)C(=O)N[C@@H](CCCNC(=N)NC(=O)NCCCCN)C(=O)N[C@@H](Cc1c[nH]c2ccccc12)C(=O)N[C@@H](CCCNC(=N)N)C(=O)N[C@@H](Cc1ccc(O)cc1)C(N)=O (single isomer, unassigned)
Reply: 0.0851 µM

###

# Species on record: Homo sapiens
# method: Selectivity ratio, Ki for displacement of [3H]UR-MK299 from human neuropeptide Y Y1 receptor in human SK-N-MC cells measured after 90 mins by scintillation counting analysis to Ki for displacement of [3H]UR-KK200 from human neuropeptide Y Y4 receptor expressed in CHO-mtAEQ cells co-expressing Gqi5 measured after 90 mins by scintillation counting analysis
# Format: cell-based
Starred links: 1 amine or outer side, 2 acyl side, 3 side chain; linkers in the order of their positions; H or OH if unused. Residues, ends and D or L forms follow the SMILES beside them. Groups on a side chain read outwards from the residue. *: point of attachment. Suc = O=C(CCC(=O)[*:2])[*:1]; CO = O=C([*:1])[*:2]; NH(CH2)3NH2 = NCCCN*
measure: Selectivity ratio

compound: N=C(N)NCCC[C@H](NC(=O)CCC(=O)O)C(=O)N[C@@H](Cc1ccc(O)cc1)C(=O)N[C@@H](CCCNC(=N)NC(=O)NCCCN)C(=O)N[C@@H](Cc1c[nH]c2ccccc12)C(=O)N[C@@H](CCCNC(=N)N)C(=O)N[C@@H](Cc1ccc(O)cc1)C(N)=O (Suc-RYR([CO-NH(CH2)3NH2])WRY-NH2)
observed value: > 150

Shift focus to the following entry.
Task item: State its Selectivity ratio: CC(C)C[C@H](NC(=O)[C@H](CCCNC(=N)NC(=O)NCCCCN)NC(=O)[C@H](Cc1c[nH]c2ccccc12)NC(=O)[C@H](CCCNC(=N)N)NC(=O)CCC(=O)O)C(=O)N[C@@H](CCCNC(=N)N)C(=O)N[C@@H](Cc1ccc(O)cc1)C(N)=O
Reply: > 4700

###

# test target: Neuropeptide Y receptor type 5 (Homo sapiens)
# Sequence (Q15761 whole entry): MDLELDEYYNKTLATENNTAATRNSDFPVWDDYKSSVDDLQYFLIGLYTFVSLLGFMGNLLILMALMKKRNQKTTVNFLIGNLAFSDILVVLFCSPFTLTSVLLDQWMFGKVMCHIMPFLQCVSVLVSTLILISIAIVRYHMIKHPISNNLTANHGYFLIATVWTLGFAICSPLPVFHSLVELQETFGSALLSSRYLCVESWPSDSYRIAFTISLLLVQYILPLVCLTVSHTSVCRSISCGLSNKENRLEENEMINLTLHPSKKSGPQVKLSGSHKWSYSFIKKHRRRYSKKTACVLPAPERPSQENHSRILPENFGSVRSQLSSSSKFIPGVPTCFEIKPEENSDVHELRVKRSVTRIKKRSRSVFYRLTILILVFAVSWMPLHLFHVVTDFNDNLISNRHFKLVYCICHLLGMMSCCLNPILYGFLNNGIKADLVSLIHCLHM
# method: Displacement of [3H]propionyl-pNPY from human neuropeptide Y Y5 receptor in human HEC-1B cells measured after 90 mins by scintillation counting analysis
# Type: cell-based, HEC-1B cell line
# run conditions: read-out: pKi (converted)
Residues, ends and D or L forms follow the SMILES beside them.
measure: Ki

Task item: Answer briefly: Ki recorded on Neuropeptide Y receptor type 5 (Homo sapiens) for N=C(N)NCCC[C@@H]1NC(=O)CCC(=O)NCCCNC(=O)NC(=N)NCCC[C@@H](C(=O)N[C@@H](Cc2c[nH]c3ccccc23)C(=O)N[C@@H](CCCNC(=N)N)C(=O)N[C@@H](Cc2ccc(O)cc2)C(N)=O)NC(=O)[C@H](Cc2ccc(O)cc2)NC1=O (HELM PEPTIDE1{R.Y.[N=C(NCCC[C@H](N[*:1])C(=O)[*:2])N[*:3]].W.R.Y.[am]}|CHEM1{[O=C(CCC(=O)[*:1])NCCCNC(=O)[*:2]]}$PEPTIDE1,CHEM1,1:R1-1:R1|PEPTIDE1,CHEM1,3:R3-1:R2$$$V2.0)
Reply: > 10 µM

###

# test target: Neuropeptide Y receptor type 4 (Homo sapiens)
# method: Displacement of [3H]UR-KK200 from human neuropeptide Y Y4 receptor expressed in CHO-mtAEQ cells co-expressing Gqi5 measured after 90 mins by scintillation counting analysis
# Format: cell-based
# run conditions: read-out: Ki
Starred links: 1 amine or outer side, 2 acyl side, 3 side chain; linkers in the order of their positions; H or OH if unused. Residues, ends and D or L forms follow the SMILES beside them. Groups on a side chain read outwards from the residue. *: point of attachment. Suc = O=C(CCC(=O)[*:2])[*:1]; CO = O=C([*:1])[*:2]; NH(CH2)3NH2 = NCCCN*
measure: Ki (nM)

molecule: CC(C)C[C@H](NC(=O)[C@@H]1CCCNC(=N)NC(=O)NCCCCNC(=O)CCC(=O)N[C@@H](CCCCN)C(=O)N[C@@H](Cc2ccc(O)cc2)C(=O)N1)C(=O)N[C@@H](CCCNC(=N)N)C(=O)N[C@@H](Cc1ccc(O)cc1)C(N)=O (HELM PEPTIDE1{K.Y.[N=C(NCCC[C@H](N[*:1])C(=O)[*:2])N[*:3]].L.R.Y.[am]}|CHEM1{[O=C(CCC(=O)[*:1])NCCCCNC(=O)[*:2]]}$PEPTIDE1,CHEM1,1:R1-1:R1|PEPTIDE1,CHEM1,3:R3-1:R2$$$V2.0)
test target: Neuropeptide Y receptor type 4 (Homo sapiens)
observed value: 0.24
//
molecule: N=C(N)NCCC[C@H](NC(=O)CCC(=O)O)C(=O)N[C@@H](Cc1ccc(O)cc1)C(=O)N[C@@H](CCCNC(=N)NC(=O)NCCCN)C(=O)N[C@@H](Cc1c[nH]c2ccccc12)C(=O)N[C@@H](CCCNC(=N)N)C(=O)N[C@@H](Cc1ccc(O)cc1)C(N)=O (Suc-RYR([CO-NH(CH2)3NH2])WRY-NH2)
test target: Neuropeptide Y receptor type 4 (Homo sapiens)
observed value: 63

I. CC(C)C[C@H](NC(=O)[C@@H]1CC(=O)NCC(=O)N[C@H](CCCNC(=N)N)C(=O)N[C@@H](CCCNC(=N)N)C(=O)N1)C(=O)N[C@@H](CCCNC(=N)N)C(=O)N[C@@H](Cc1ccc(O)cc1)C(N)=O
II. CC(C)C[C@H](NC(=O)[C@@H]1CCC(=O)NCC(=O)N[C@H](CCCNC(=N)N)C(=O)N[C@@H](CCCNC(=N)N)C(=O)N1)C(=O)N[C@@H](CCCNC(=N)N)C(=O)N[C@@H](Cc1ccc(O)cc1)C(N)=O
III. CC(C)C[C@H](NC(=O)[C@@H]1CCCNC(=N)NC(=O)NCCCNC(=O)CCC(=O)N[C@@H](CCCNC(=N)N)C(=O)N[C@@H](Cc2ccc(O)cc2)C(=O)N1)C(=O)N[C@@H](CCCNC(=N)N)C(=O)N[C@@H](Cc1ccc(O)cc1)C(N)=O
Task item: Order the records by Ki, with each subsequent value no larger than the one before. Use the labels to give the requested order.
Reply: I, II, III
(I: 170 nM, II: 30 nM, III: 0.13 nM)
